In this section we review reported GI50 values for a set of molecules.
- Experimental details: Growth inhibition of human COLO205 cells incubated for 48 hrs by sulforhodamine B assay
- Assay type: functional
- Condition set: COLO 205, 48 h
Property measured: GI50 (µM)

>  <Query smiles>
C/C(=C\C(=O)O[C@H]1[C@@H]2[C@H](C)CC[C@H]2[C@]2(C)O[C@@]1(C(C)C)C[C@H]2NC(=O)CO)c1ccccc1

>  <Property measured>
GI50

>  <Sign qualifier>
=

>  <Endpoint result>
22.9

$$$$
>  <Query smiles>
CC(C)[C@@]12C[C@@H](NC(=O)CO)[C@@](C)(O1)[C@@H]1CC[C@@H](C)[C@H]1[C@@H]2OC(=O)c1ccc2ccccc2c1

>  <Property measured>
GI50

>  <Sign qualifier>
=

>  <Endpoint result>
19.1

$$$$
>  <Query smiles>
CC(C)[C@@]12C[C@@H](NC(=O)CO)[C@@](C)(O1)[C@@H]1CC[C@@H](C)[C@H]1[C@@H]2OC(=O)/C=C/c1ccccc1

>  <Property measured>
GI50

>  <Sign qualifier>
=

>  <Endpoint result>
10.7

$$$$
>  <Query smiles>
CC(C)[C@@]12C[C@@H](NC(=O)CO)[C@@](C)(O1)[C@@H]1CC[C@@H](C)[C@H]1[C@@H]2OC(=O)/C=C/C1CCCCC1

>  <Property measured>
GI50

>  <Sign qualifier>
>

>  <Endpoint result>
44.7

$$$$

Cited source for all entries: ChEMBL document CHEMBL3804761
